# System: PPARg:RXRa 90nM:30nM, anti-RXR (NR concentration 90 nM, RXRa partner concentration 30 nM)
# measurement description: PBM binding z-score (relative to random genomic background probes); higher = stronger binding; sequences stand for … in GC…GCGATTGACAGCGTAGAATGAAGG
# label = YES if PBM binding z-score >= 5 else NO

TCCAGTTGGTCACGGAGGTCACACACGACGGGTA :: NO
CCTAGGAGGCCAGGGTCACTCAAGCATTTCGCTT :: NO
ATATGTAGGTTACATCCGGGTCATTCACGCTATG :: NO
AGTCAAAGTTCACTAGGTAAAGTAAGATTCAGCT :: YES
ATATGTAGGTTAAGGGCCATTCAGGTTGGTTCGC :: YES
TGAATGAGGTTAAAGATCATGGAACGTGGCGTCG :: YES
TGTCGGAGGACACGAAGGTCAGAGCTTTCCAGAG :: NO
TAGCCTAGGTCATTCAAGGGCCAGTATAGAAAGC :: NO
ATATGTAGGTTAAGGGTCCTTCAGGTTGGTTCGC :: YES

Please look at the following sequence next.
# bool: PBM binding z-score of GCATATGGGTAATACAAGGTGAAAGTCCGATTGT >= 5
NO
